src = patent US20180036441A1

# assayed-target: T1, MUC1 on HCT116/MUC1 cells (UniProt P15941 24-1255, limits assumed)
# T1 construct: whole, on cells; also called MUC1 overexpressed cell line
# T1 sequence (P15941 24-1255 limits assumed): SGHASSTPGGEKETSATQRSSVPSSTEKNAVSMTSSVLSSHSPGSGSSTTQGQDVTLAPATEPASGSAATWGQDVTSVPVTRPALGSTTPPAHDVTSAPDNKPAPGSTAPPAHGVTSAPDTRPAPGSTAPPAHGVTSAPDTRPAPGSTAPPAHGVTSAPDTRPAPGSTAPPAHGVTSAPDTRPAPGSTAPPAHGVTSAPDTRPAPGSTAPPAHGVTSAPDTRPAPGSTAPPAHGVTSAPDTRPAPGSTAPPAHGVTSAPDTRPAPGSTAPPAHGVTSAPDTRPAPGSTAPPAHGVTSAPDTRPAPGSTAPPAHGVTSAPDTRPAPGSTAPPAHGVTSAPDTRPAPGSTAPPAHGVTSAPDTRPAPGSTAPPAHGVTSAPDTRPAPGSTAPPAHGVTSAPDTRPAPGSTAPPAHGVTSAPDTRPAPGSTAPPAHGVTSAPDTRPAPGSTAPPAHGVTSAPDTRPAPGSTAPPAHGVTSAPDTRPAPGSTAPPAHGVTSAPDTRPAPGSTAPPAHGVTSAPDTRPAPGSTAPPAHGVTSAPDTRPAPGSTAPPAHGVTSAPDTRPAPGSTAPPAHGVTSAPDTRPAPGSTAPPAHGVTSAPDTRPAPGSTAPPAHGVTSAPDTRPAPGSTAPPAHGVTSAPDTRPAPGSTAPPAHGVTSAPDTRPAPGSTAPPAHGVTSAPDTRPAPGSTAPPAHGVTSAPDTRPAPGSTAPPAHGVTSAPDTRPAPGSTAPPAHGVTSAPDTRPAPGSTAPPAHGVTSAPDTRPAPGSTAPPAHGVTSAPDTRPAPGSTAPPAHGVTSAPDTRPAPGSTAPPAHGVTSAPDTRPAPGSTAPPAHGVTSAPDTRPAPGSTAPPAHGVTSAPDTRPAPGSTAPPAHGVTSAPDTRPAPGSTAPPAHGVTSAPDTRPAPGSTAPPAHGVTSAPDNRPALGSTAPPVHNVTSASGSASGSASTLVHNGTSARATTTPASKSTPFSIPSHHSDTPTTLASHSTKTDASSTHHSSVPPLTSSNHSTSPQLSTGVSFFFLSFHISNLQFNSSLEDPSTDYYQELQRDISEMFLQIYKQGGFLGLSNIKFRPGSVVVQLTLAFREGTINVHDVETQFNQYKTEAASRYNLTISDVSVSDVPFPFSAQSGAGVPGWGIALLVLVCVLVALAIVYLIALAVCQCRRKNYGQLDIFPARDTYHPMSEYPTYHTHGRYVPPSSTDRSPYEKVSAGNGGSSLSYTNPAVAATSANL
# protocol-text: FACS titration, HCT116/MUC1 cells, antibody at 125 nM
endpoint-name: geometric mean
Enter the number alone.

Request: Would you mind telling me what geometric mean value was observed for VH3 + VL3 (antibody, V domains shown, Humanized IgG expressed in HEK293; also called humanized antibody VH3+VL3) VH: QVQLVQSGAEVKKPGASVKVSCKASGYAFSNFWMNWVRQAPGQGLEWMGQIYPGDGDTNYNGKFKGRVTMTRDTSISTAYMELSRLRSDDTAVYYCARSYYRSAWFAYWGQGTLVTVSS VL: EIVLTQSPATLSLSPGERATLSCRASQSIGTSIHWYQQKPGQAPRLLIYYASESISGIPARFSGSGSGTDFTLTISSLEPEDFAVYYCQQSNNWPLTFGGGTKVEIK ?
Result: 151

Request: Also need VH1 + VL4 (antibody, V domains shown, Humanized IgG expressed in HEK293; also called humanized antibody VH1+VL4) VH: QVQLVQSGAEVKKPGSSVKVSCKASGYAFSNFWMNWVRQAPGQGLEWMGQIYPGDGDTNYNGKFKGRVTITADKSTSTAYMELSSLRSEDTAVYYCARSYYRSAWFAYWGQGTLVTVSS VL: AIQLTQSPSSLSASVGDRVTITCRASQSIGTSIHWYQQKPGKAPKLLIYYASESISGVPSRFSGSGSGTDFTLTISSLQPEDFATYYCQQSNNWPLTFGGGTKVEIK , thanks.
Result: 132

Request: Also need VH5 + VL4 (antibody, V domains shown, Humanized IgG expressed in HEK293; also called humanized antibody VH5+VL4) VH: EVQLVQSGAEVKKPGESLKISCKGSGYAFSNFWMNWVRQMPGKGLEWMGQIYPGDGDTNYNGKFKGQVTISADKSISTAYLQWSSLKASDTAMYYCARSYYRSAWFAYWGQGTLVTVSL VL: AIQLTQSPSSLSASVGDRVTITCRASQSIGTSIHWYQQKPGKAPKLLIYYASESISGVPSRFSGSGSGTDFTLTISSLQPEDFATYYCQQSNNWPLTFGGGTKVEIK , thanks.
Result: 202
